# Measurement Protocol: yeast display, Sf9 membrane polyspecificity reagent, FACS + sequencing; frameworks hold sequencing errors
Endpoint Name: polyreactivity (PSR sort gate)

Consider the worked cases shown below.
QVQLVESAGGLVQAGGSLRLSCAASGRTFYSYAMGWSRQAPGKEREFVAAITKSGGSTYYADSVKGRFTISRDNAKNTVYLQMNSLKPEDTAVYYCAAGLVATFSRPGRASYRYNYWGQGTQVTVSS
high polyreactivity
QVQLVESGGGLVQAGGSLRLSCAASGLTFHAYAMGWYRQPPGKEREFVAAITRSGSSTSYADSVKGRFTISRDNAKNTVYLQMNSLKPEDTAVYYCAAQGSRKYRNDYWGQGTQVTVSS
high polyreactivity
QVQLVQSGGGLVQAGGSLRLSCAASGLTLRGNTMGWYRQAPGKEREMVADITASAGSTYYADSVKGRFTISRDNAKNTVYLQMNSLKPEDTAVYYCATVRYDVAAWAYSEYYYWGQGSQVTVSS
low polyreactivity
QVQLVESGGGLVQAGGSLRLSCAASGSTFSRYAMRWYRQAPGKEMELVAAISSRGGSTYYADSVKGRFTISRDNAMNTVYLQMNSLKPEDTAFYYCAVKSYRLTGRGYWGQGTQVTVSS
high polyreactivity
QVQLVESGGGLVQAGGSLRLSCAASGSTFWWTTMGWYRQAPGTERELVAAITTGGGTYYADSVKGRFTISRDNAKNTVYLQMNSLKPEDTAVYYCNADYDSQYHYLLRYDYWGQGTQVTVSS
low polyreactivity
QVQLQERGGGLVQAGGTLRLSCAASGSFSADEDMGWYRQAQGKEREFVAGISVGGNTNYADSVKGRFTISRENAKNTVYLQINSLKPEDTAVYYCAVLQDVYDALDYWAQGTQVTVSS
high polyreactivity
QVQLVESGGGLVQAGGSLRLSCAASGSTFCSYVMGWYRQAPGKERELVAAISSIGGSTYYADSVKGRFTISRDNAKNTVYLQMNSLKPEDTAVYYCAAEPPGSPYEGGYWGQGTQVTVSS
low polyreactivity
QVQLVESGGGLVQAGGSLRLSCAASGITFYVYTMGWYRQAPGKERELVAAINGSGGSTNYADSVKGRFTISRDNAKNTVYLLMNSLKPEDTAVYYCAADWSLRLYDYWGQGTQVTVSS
low polyreactivity

Kindly note the recorded polyreactivity (PSR sort gate) for `QVQLVESGGGLVQAGGSLRLSCAASGSTFRRYAMGWYRPAPGKERELVAAISRSGGTTYYADSVKGRFTISRDNAKNTVYFQMNSLKPEDTAVYYCNARYPVVRYDYWGQGTQVTVSS` , which is high polyreactivity

// polyreactivity (PSR sort gate) lookup, sequence = `QVQLVESGVGLVQAGGSLRLSCAASGLTFGWYAMGWYRQAPGKERELVASITRRSGSTYYADSVKGRFTISRDNAKNTVYLQMNSLKPEDTAVYYCAARSRGTTRFDFWGQGTQVTVSW` , result: high polyreactivity

Looking up `QVQLVESGGGIVQAGGSLRLSCAASGSTFRAYVMGWSRPAPGKERELVAAITYRGTSTYYADSVKGRFTISRDNAKYTVYLQMNSLKPEDTAVYYCAARRLYTRGTYDYWGLGTQVTVSS` , I see its polyreactivity (PSR sort gate) listed as high polyreactivity

Value of polyreactivity (PSR sort gate) reported for the sequence `QVQLVESGGGLVQAGGSLRLSCAASGSTFFRNAMGCYRQAPGKERELVADISASGGSTYYADSVKGRFTISRDNAKNTVYLQMNSLKPEDTAVYYCNALYIYFYNYLTMDYWGQGTQVTVSS` is low polyreactivity

`QVQLVESGGGLVQAGGSLRLICAASGTIFITNAMGWYRPAPGKERELVAAISGRGGSTYYADSVKGRFTISRDNAKNTVYLQMNSLKPEDTAVYYCNAYSYRVSGYDYWGQGTQVTVSS` has a reported polyreactivity (PSR sort gate) of high polyreactivity

# sequence `QDQLVESGGGLVQAGGSLRLSCAASGSIFNGNAMGWYRPAPGKERELVAAITRRGGRTFYADSVKGRFTISRDNAKNSVYLQMNSLKPEDTAVYYCNAYSKAVQGGYDYWGQGTQVTVSS` ; its polyreactivity (PSR sort gate) = high polyreactivity

Summary for this sequence, `QVQLVESGGGLFQAGGSHRLSCAASGSTFTPYAMGWYRQAPGKEREFVARISWTGGSTYYADSVKGRFTISRDNAKNTVYLQMNSLKPEDTAVYYCAARYGYSYYRRDYWGQGTQVTVSS` : polyreactivity (PSR sort gate) is high polyreactivity

The sequence `QVQLVESGGGLVQAGGSLRLSCAASGRTFVYNAMGWYRQAPGKERELVAAISSSGGSTRYADSVKGRFTISRDNAKNTVYLQMNSLKPEDTAVYYCNRLRYSNRYDTWGQGTQVTVSS` showed polyreactivity (PSR sort gate) equal to high polyreactivity

Looking up `QVQLVESGGGLVQAGGSLRLSCADSGSTFWPYAMGWYRQAPGKESEVVAAISSSGGSTYYADSVQGRFTISRDNAKNTVYLQMNSLKPEDTAVYYCNKDYHRPFGGGSKGDYWGQRTQVTVSS` , I see its polyreactivity (PSR sort gate) listed as low polyreactivity

Record summary for `QVQLVESGGGLVQAGGSLRLSCAASGLIFRRYAMGWYRQAPGKERELVAAITIGGSTSYADSVKGRFTISRDNAKNTVYLQMNSLKPEDTAVYYCAARWGALWYRPYDYWGQGTQVTVSS` : reported polyreactivity (PSR sort gate) = high polyreactivity

// polyreactivity (PSR sort gate) lookup, sequence = `QDQHVESGGGLVQAGGTLRISCAASGFTFYVYAMGWYRQAPGKEMELVASISKSGGSTYYADSVKGRFTITRDNAKNTVFLQMNSLKTVDTAVYYCAVYDKRSCYRGGHRYNSCGQGTQVTVSS` , result: high polyreactivity

Documented polyreactivity (PSR sort gate) of `QVQLVESGGGLVQAGGSLRLSCAASGRIFSTYAMGWYRQAPGKERELVAAINKIGGSTYYADSVKGRITISRDNAKNTVYLQMNSLKPEDTAVYYCAADAPYYPVRRYYYWGQGTQVTVSS` : low polyreactivity

Looking up `QVQLVESGGGLVQAGGSLRLSCAASGFTFSYYGMGWYRQAPGKERELVAAISWSGGRTYYADSVKGRFTISRDNAKNTVYLQMNSLKPEDTAVYYCAASAPRGYGYKYYYWGQGTQVTVSS` , I found its polyreactivity (PSR sort gate) recorded as high polyreactivity
